Assayed system: Neuropeptides B/W receptor type 1 (Homo sapiens) (UniProt P48145)
Sequence (P48145 whole entry, looked up): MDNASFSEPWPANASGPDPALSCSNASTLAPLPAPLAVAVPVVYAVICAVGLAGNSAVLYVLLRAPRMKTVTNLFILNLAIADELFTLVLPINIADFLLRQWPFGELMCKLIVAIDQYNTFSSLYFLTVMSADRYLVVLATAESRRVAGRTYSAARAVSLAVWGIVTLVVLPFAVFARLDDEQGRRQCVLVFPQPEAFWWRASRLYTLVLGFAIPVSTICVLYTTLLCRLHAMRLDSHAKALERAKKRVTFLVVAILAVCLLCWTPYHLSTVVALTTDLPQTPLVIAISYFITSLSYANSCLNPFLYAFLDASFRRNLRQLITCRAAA
Test protocol: GPR7 receptor antagonists, primary screen, cell-based, fluorescence, single concentration (AID 1861);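 also: cells stimulated with the agonist NPW; 0% = agonist with vehicle and 100% = vehicle without agonist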
Measurement parameters: GPR7-expressing cells, fluorescence antagonist assay; at 4.4 µM
About 3,100 (1.1%) of roughly 290,000 compounds were called active. Rule as the data show it: active = inhibition above about 16% (passing the limit was not always enough); inactive = the rest. Only a selection was taken, and actives are over-represented in it overall.
Outcomes: active, inactive

[
  {
    "Molecule": "COc1ccc(C(=O)N2CCCC(C(=O)c3ccccc3OC)C2)cc1OC (configuration not stated)",
    "Assigned category": "inactive"
  },
  {
    "Molecule": "Cc1cccc(NC(=O)c2ccc3nsnc3c2)c1C",
    "Assigned category": "inactive"
  },
  {
    "Molecule": "COCCNC(=O)C(c1ccc(C)o1)N(Cc1ccccc1)C(=O)Cn1nnc2ccccc21 (configuration not stated)",
    "Assigned category": "inactive"
  },
  {
    "Molecule": "O=C(Nc1ccccc1C(=O)O)c1ccc(N2C(=O)C3CC=CCC3C2=O)cc1 (configuration not stated)",
    "Assigned category": "inactive"
  },
  {
    "Molecule": "CCCCCCn1c(CN2CCCCC2)nc2c1c(=O)n(C)c(=O)n2C",
    "Assigned category": "inactive"
  },
  {
    "Molecule": "CCOC(=O)N1CCC(N2Cc3cccc(C(=O)Nc4c(C)cccc4CC)c3C2=O)CC1",
    "Assigned category": "inactive"
  },
  {
    "Molecule": "Cc1cc(Cl)ccc1OCCCC(=O)Nc1cccc(-n2cnnn2)c1",
    "Assigned category": "active"
  },
  {
    "Molecule": "Cc1cccc(NC(=O)c2cccc(C(=O)Nc3cccc(C)c3C)n2)c1C",
    "Assigned category": "active"
  },
  {
    "Molecule": "O=C(CSc1nnnn1C1CCCC1)N1CCCCC1",
    "Assigned category": "inactive"
  },
  {
    "Molecule": "Nc1nc(NCc2ccccc2)n(-c2ccccc2)n1",
    "Assigned category": "inactive"
  },
  {
    "Molecule": "Cc1nc(C)c(C(=O)Nc2cccc(C)c2C)o1",
    "Assigned category": "inactive"
  },
  {
    "Molecule": "CCSc1nsc(NC(=O)Nc2cccc(C(C)=O)c2)n1",
    "Assigned category": "active"
  }
]

----------
Assayed system: Neuropeptides B/W receptor type 1 (Homo sapiens)
Test protocol: GPR7 receptor antagonists, primary screen, cell-based, fluorescence, single concentration (AID 1861);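 also: cells stimulated with the agonist NPW; 0% = agonist with vehicle and 100% = vehicle without agonist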
Measurement parameters: GPR7-expressing cells, fluorescence antagonist assay; at 4.4 µM
The campaign covered roughly 290,000 compounds. About 3,100 (1.1%) were called active. Rule as the data show it: active = inhibition above about 16% (passing the limit was not always enough); inactive = the rest. This excerpt belongs to a sample that is enriched for actives.
Outcomes: active, inactive

[
  {
    "Compound": "CN1CCN(c2ccccc2NC(=O)COc2ccc(C3CCCCC3)cc2)CC1",
    "Assayed system": "Neuropeptides B/W receptor type 1 (Homo sapiens)",
    "Assigned category": "inactive"
  },
  {
    "Compound": "O=C(COc1ccc(Cl)cc1)N1CCN(c2cccc(C(F)(F)F)c2)CC1",
    "Assayed system": "Neuropeptides B/W receptor type 1 (Homo sapiens)",
    "Assigned category": "inactive"
  },
  {
    "Compound": "COc1ccc2[nH]c(=O)c(C3c4cc(OC)c(OC)cc4CCN3C(=O)c3ccco3)cc2c1 (stereo not given)",
    "Assayed system": "Neuropeptides B/W receptor type 1 (Homo sapiens)",
    "Assigned category": "inactive"
  },
  {
    "Compound": "CCCCSCCCNC(=O)C1CCC(CNS(=O)(=O)c2ccc(NC(C)=O)cc2)CC1 (stereo not given)",
    "Assayed system": "Neuropeptides B/W receptor type 1 (Homo sapiens)",
    "Assigned category": "inactive"
  },
  {
    "Compound": "CCC(=O)Nc1ccc(S(=O)(=O)Nc2c(NC)c3ccccc3oc2=O)cc1",
    "Assayed system": "Neuropeptides B/W receptor type 1 (Homo sapiens)",
    "Assigned category": "inactive"
  },
  {
    "Compound": "CC(=O)N1CCCc2cc(S(=O)(=O)N3CCCC(C(=O)N4CCN(c5cccc(Cl)c5)CC4)C3)ccc21 (stereo not given)",
    "Assayed system": "Neuropeptides B/W receptor type 1 (Homo sapiens)",
    "Assigned category": "active"
  },
  {
    "Compound": "COc1ccc(CC(=O)Nc2cc(S(=O)(=O)N3CCCCC3)ccc2N2CCN(C)CC2)cc1",
    "Assayed system": "Neuropeptides B/W receptor type 1 (Homo sapiens)",
    "Assigned category": "active"
  },
  {
    "Compound": "CCCc1ccc(OCC(O)CN2CCN(C(=O)OCC)CC2)cc1 (stereo not given)",
    "Assayed system": "Neuropeptides B/W receptor type 1 (Homo sapiens)",
    "Assigned category": "inactive"
  },
  {
    "Compound": "O=C(COc1ccc(S(=O)(=O)Nc2cccc(C(F)(F)F)c2)cc1)N1CCOCC1",
    "Assayed system": "Neuropeptides B/W receptor type 1 (Homo sapiens)",
    "Assigned category": "active"
  },
  {
    "Compound": "CCOc1ccc(NC(=O)C2CCN(C(=O)N3CCOc4ccccc43)CC2)cc1",
    "Assayed system": "Neuropeptides B/W receptor type 1 (Homo sapiens)",
    "Assigned category": "inactive"
  }
]

----------
Assayed system: Neuropeptides B/W receptor type 1 (Homo sapiens)
Test protocol: GPR7 receptor antagonists, primary screen, cell-based, fluorescence, single concentration (AID 1861);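 also: cells stimulated with the agonist NPW; 0% = agonist with vehicle and 100% = vehicle without agonist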
Measurement parameters: GPR7-expressing cells, fluorescence antagonist assay; at 4.4 µM; hits give high values
Screen size: about 290,000 compounds; about 3,100 (1.1%) were called active. What follows is part of a selection rich in actives, with near analogues and random picks from the rest.
inhibition values by entry

[
  {
    "Compound": "CC(=O)Oc1ccc2c(=O)oc(-c3ccc([N+](=O)[O-])cc3)nc2c1",
    "inhibition [%]": -20.8
  },
  {
    "Compound": "Cc1nonc1NC(=O)c1oc2ccccc2c1C",
    "inhibition [%]": -9.19
  },
  {
    "Compound": "CCN(CC)CCN(C(=O)c1ccc(S(=O)(=O)N2CCOCC2)cc1)c1nc2cc3c(cc2s1)OCCO3",
    "inhibition [%]": -11.1
  },
  {
    "Compound": "CCOc1ccc2nc(N(CCCN(C)C)C(=O)c3ccc(C(=O)c4ccccc4)cc3)sc2c1",
    "inhibition [%]": 6.16
  },
  {
    "Compound": "COc1ccc(S(=O)(=O)Nc2ccc(S(=O)(=O)N3CCCCC3)cc2)cc1OC",
    "inhibition [%]": -7.42
  },
  {
    "Compound": "CCCCCCCCCCOC(=O)Cn1c(COc2ccc(C)cc2)[n+](C)c2ccccc21",
    "inhibition [%]": 19.5
  },
  {
    "Compound": "CSc1nc2ccc(S(=O)(=O)N3CCc4ccccc43)cc2s1",
    "inhibition [%]": -0.77
  },
  {
    "Compound": "O=C(c1ccccc1)N1CCC(CC2CC(c3ccc(Cl)cc3)=NO2)(C(=O)NCC2CCCCC2)CC1 (stereo not given)",
    "inhibition [%]": -2.72
  },
  {
    "Compound": "CC(=O)N(CCCN(C)C)c1nc2ccc(C)cc2s1",
    "inhibition [%]": -10.8
  },
  {
    "Compound": "Cn1cc(CNC(=O)c2ccc(OC3CCN(Cc4ccccn4)CC3)cc2)cn1",
    "inhibition [%]": -5.98
  },
  {
    "Compound": "COc1cc(CNC2CCCCC2)c(Br)cc1OC1CCCC1",
    "inhibition [%]": -7.35
  },
  {
    "Compound": "CN(C)CCCN(C(=O)c1ccc(S(=O)(=O)N2CCCCCC2)cc1)c1nc2ccc(Br)cc2s1",
    "inhibition [%]": 28.6
  },
  {
    "Compound": "CCc1ccc(N(C(=O)c2csnn2)C(C(=O)NC2CCCCC2)c2cccnc2)cc1 (stereo not given)",
    "inhibition [%]": 16.5
  },
  {
    "Compound": "CCOc1ccc(OCc2ccc(C(=O)Nc3cccc(C)n3)o2)cc1",
    "inhibition [%]": -9.15
  },
  {
    "Compound": "N#Cc1ccccc1NC(=O)c1ccc2c(c1)OCO2",
    "inhibition [%]": -3.22
  },
  {
    "Compound": "O=C(Cc1nn[nH]n1)NCCC1=CCCCC1",
    "inhibition [%]": -14.2
  },
  {
    "Compound": "O=C(Nc1ccccc1Cl)Nn1cnnc1",
    "inhibition [%]": -16.3
  },
  {
    "Compound": "Cc1c(C(=O)O)nnn1-c1nonc1N",
    "inhibition [%]": -7.01
  },
  {
    "Compound": "O/N=C(\\C[n+]1ccccc1)c1ccc(Br)cc1",
    "inhibition [%]": 5.69
  },
  {
    "Compound": "CCN(CC)Cc1c(C(=O)OC)nnn1-c1nonc1N",
    "inhibition [%]": 36.6
  },
  {
    "Compound": "COc1ccc(C2C=C(c3ccc(Br)cc3)Nc3nc(NS(C)(=O)=O)nn32)cc1 (stereo not given)",
    "inhibition [%]": 15
  },
  {
    "Compound": "Cn1nccc1/C=N\\NC(=O)c1ccc(Cl)cc1",
    "inhibition [%]": -6.59
  },
  {
    "Compound": "CCCCCCCCCCOC(=O)Cn1c(COc2cccc(OC)c2)[n+](C)c2ccccc21",
    "inhibition [%]": 65
  },
  {
    "Compound": "COc1cc(-c2nn3c(-c4cccc(C)c4)nnc3s2)cc(OC)c1OC",
    "inhibition [%]": 12.2
  },
  {
    "Compound": "O=C(NC1CCCC1)C(c1ccco1)N(C(=O)c1csnn1)c1ccccc1 (stereo not given)",
    "inhibition [%]": -7.05
  },
  {
    "Compound": "COc1ccc(-c2nc3c(s2)CCc2onc(-c4ccc(OC)cc4)c2-3)cc1",
    "inhibition [%]": -14.6
  },
  {
    "Compound": "O=[N+]([O-])c1cccc(/C=N/Nc2ncc(Br)cn2)c1",
    "inhibition [%]": -6.1
  },
  {
    "Compound": "O=[N+]([O-])c1ccc(NC(=S)N2CCN(c3ccccn3)CC2)cc1",
    "inhibition [%]": -5.44
  },
  {
    "Compound": "Cc1ccc(F)cc1NC(=O)c1ccc2c(c1)OCO2",
    "inhibition [%]": -15.9
  },
  {
    "Compound": "COc1ccc(C2(C)NC(=O)N(CC(=O)c3ccc4c(c3)OCO4)C2=O)cc1 (stereo not given)",
    "inhibition [%]": 0.08
  }
]
